Reported IC50 values for the following molecules.
target-or-system: PE-labeled human PD-L1-Ig binding to Jurkat cell line over-expressing human PD-1 (Jurkat-PD-1) (Homo sapiens, UniProt Q15116)
Construct: expressed in transfected cells; host or cells: Jurkat
Sequence (Q15116 25-288): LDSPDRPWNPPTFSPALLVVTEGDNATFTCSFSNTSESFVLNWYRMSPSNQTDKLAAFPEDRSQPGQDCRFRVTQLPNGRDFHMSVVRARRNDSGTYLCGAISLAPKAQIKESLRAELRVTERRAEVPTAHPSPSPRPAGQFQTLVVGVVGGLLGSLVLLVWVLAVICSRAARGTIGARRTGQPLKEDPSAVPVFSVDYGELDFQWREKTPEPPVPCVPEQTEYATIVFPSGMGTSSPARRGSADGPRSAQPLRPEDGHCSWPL
measurement-protocol: Jurkat-PD-1 Cell Binding High-Content Screening Assay (CBA): Method 1
measurement-conditions: Jurkat-hPD-1 cells, PE-labeled PD-L1-Ig 20 nM final; read-out: Jurkat HPDL1 PD1 IC50 (uM) (Method 1)
Bridge positions count the residues as written; N and C are the ends. Square brackets hold non-standard residues; d marks the D form. Peptide text beside a SMILES is read from it. Bip = N[C@@H](Cc1ccc(-c2ccccc2)cc1)C(=O)O; NMeA = CN[C@@H](C)C(=O)O; Orn = NCCC[C@H](N)C(=O)O; Dab = NCC[C@H](N)C(=O)O
Give a bare numeral; the unit µM is implied.

Examples with answers:
{"molecule": "CC(C)C[C@@H]1NC(=O)[C@H](CCCNC(=N)N)NC(=O)[C@@H](CC(C)C)NC(=O)[C@H](C)N(C)C(=O)[C@H](CCCNC(=N)N)NC(=O)[C@H](Cc2ccc(-c3ccccc3)cc2)NC(=O)[C@H](C(C)C)NC(=O)[C@H](Cc2c[nH]c3ccccc23)NC(=O)[C@H](CC(=O)O)NC(=O)[C@H](Cc2ccc(O)cc2)NC(=O)[C@H](CC(N)=O)NC(=O)CSC[C@@H](C(=O)NCC(N)=O)NC(=O)[C@H]([C@@H](C)O)NC(=O)[C@H](C(C)C)NC1=O [Compound 1244] ({CH2CO}-NYDWV[Bip]R[NMeA][dL]RLVTCG-NH2; thioether N-14)", "IC50, µM": 0.04}
{"molecule": "CC(C)C[C@@H]1NC(=O)[C@H](CCN)NC(=O)[C@@H](CC(C)C)NC(=O)[C@H](C)N(C)C(=O)[C@H](CCCNC(=N)N)NC(=O)[C@H](Cc2ccc(-c3ccccc3)cc2)NC(=O)[C@H](C(C)C)NC(=O)[C@H](Cc2c[nH]c3ccccc23)NC(=O)[C@H](CC(=O)O)NC(=O)[C@H](Cc2cnc[nH]2)NC(=O)[C@H](Cc2ccccc2)NC(=O)CSC[C@@H](C(=O)N[C@@H](C)C(N)=O)NC(=O)[C@H]([C@@H](C)O)NC(=O)[C@H](C(C)C)NC1=O [Compound 1130] ({CH2CO}-FHDWV[Bip]R[NMeA][dL][Dab]LVTCA-NH2; thioether N-14)", "IC50, µM": 0.18}
{"molecule": "CC(C)C[C@@H]1NC(=O)[C@H](Cc2c[nH]c3ccccc23)NC(=O)[C@H](CC(N)=O)NC(=O)[C@H](Cc2ccc(O)cc2)NC(=O)[C@H](Cc2ccccc2)NC(=O)CSC[C@@H](C(=O)N[C@@H](C)C(N)=O)NC(=O)[C@H](CO)NC(=O)[C@H](C(C)C)NC(=O)[C@H](CC(C)C)NC(=O)[C@H](CC(N)=O)NC(=O)[C@@H](C)NC(=O)[C@H](C)N(C)C(=O)[C@H](C(C)C)NC(=O)[C@H](Cc2ccc(-c3ccccc3)cc2)NC1=O [Compound 1791] ({CH2CO}-FYNWL[Bip]V[NMeA][dA]NLVSCA-NH2; thioether N-14)", "IC50, µM": 0.13}

Attention now shifts to the item below.
Would you mind telling me what IC50 value was observed for CC(C)C[C@@H]1NC(=O)[C@H](CCCNC(=N)N)NC(=O)[C@@H](CC(C)C)NC(=O)[C@H](C)N(C)C(=O)[C@H](CCCNC(=N)N)NC(=O)[C@H](Cc2ccc(-c3ccccc3)cc2)NC(=O)[C@H](C(C)C)NC(=O)[C@H](Cc2c[nH]c3ccccc23)NC(=O)[C@H](CC(=O)O)NC(=O)[C@H](Cc2ccc(O)cc2)NC(=O)[C@H](CC(N)=O)NC(=O)CSC[C@@H](C(=O)N[C@@H](C)C(N)=O)NC(=O)[C@H](CCCN)NC(=O)[C@H](C(C)C)NC1=O [Compound 1252] ({CH2CO}-NYDWV[Bip]R[NMeA][dL]RLV[Orn]CA-NH2; thioether N-14) ? 0.09
